Overview of recorded relative viability for various compounds
# System: NCI-H1651
# test: relative viability (nuclei count vs DMSO), 5 days (fraction); higher = more cells survive
# settings: first compound 0.253 µM
attribute measured: relative viability

| compound | measured |
| --- | --- |
| COc1nc(C)cnc1NS(=O)(=O)c1cccnc1-c1ccc(-c2nnco2)cc1 [Zibotentan] + CS(=O)(=O)N1CCN(Cc2cc3nc(-c4cccc5[nH]ncc45)nc(N4CCOCC4)c3s2)CC1 [Pictilisib] (partner 1 µM) | 0.427 |
| O=c1cc(-c2cccc3c2Sc2ccccc2S3)oc(N2CCOCC2)c1 + CS(=O)(=O)N1CCN(Cc2cc3nc(-c4cccc5[nH]ncc45)nc(N4CCOCC4)c3s2)CC1 [Pictilisib] (partner 1 µM) | 0.857 |
| O=c1cc(-c2cccc3c2Sc2ccccc2S3)oc(N2CCOCC2)c1 + Nc1nc2[nH]cc(CCc3ccc(C(=O)N[C@@H](CCC(=O)O)C(=O)O)cc3)c2c(=O)[nH]1 [Pemetrexed] (partner 0.2 µM) | 0.636 |
| O=c1cc(-c2cccc3c2Sc2ccccc2S3)oc(N2CCOCC2)c1 + CC1(C)CCC(c2ccc(Cl)cc2)=C(CN2CCN(c3ccc(C(=O)NS(=O)(=O)c4ccc(N[C@H](CCN5CCOCC5)CSc5ccccc5)c(S(=O)(=O)C(F)(F)F)c4)cc3)CC2)C1 [Navitoclax] (partner 0.5 µM) | 1.42 |
